meta.source: patent US20210139548A1

Target: T1, human neuropeptide Y2 receptor (human, UniProt P49146 1-381)
T1 sequence (looked up): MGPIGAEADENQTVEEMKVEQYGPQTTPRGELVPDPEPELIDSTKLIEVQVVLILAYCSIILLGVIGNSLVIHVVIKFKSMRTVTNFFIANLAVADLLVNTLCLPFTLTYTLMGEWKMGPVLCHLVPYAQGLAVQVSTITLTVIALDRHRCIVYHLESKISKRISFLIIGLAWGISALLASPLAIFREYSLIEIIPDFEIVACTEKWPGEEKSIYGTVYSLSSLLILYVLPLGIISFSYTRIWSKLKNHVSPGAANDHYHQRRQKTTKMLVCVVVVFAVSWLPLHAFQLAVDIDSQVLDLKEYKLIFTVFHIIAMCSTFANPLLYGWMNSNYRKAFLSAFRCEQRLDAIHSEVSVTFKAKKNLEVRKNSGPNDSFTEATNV
Experiment: cell-based or functional assay
*1 amine or outer side, *2 acyl side, *3 side chain or, on linkers, in order; H or OH if unused. Side-chain parts run from the residue outwards. The star is where a group is joined. C18 diacid = O=C(O)CCCCCCCCCCCCCCCCC(=O)*; γGlu = O=C(O)[C@H](CCC(=O)[*:2])N[*:1]; Isovaleryl = CC(C)CC(=O)*; AEEA = NCCOCCOCC(=O)O
The following binders are shown together with reported EC50 (HTRF cAMP Gi assay) values.
METRIC: EC50 (HTRF cAMP Gi assay) (nM)

1. Isovaleryl-APAK([AEEA-AEEA-γGlu-C18 diacid])PEEDASPEEIQRYYVSLRHYYNWLTRQRY-NH2 [Compound 23] : 0.15
2. Isovaleryl-APEK([AEEA-AEEA-γGlu-C18 diacid])PEADASPEEIQRYYVSLRHYYNWLTRQRY-NH2 [Compound 53] : 0.119
3. Isovaleryl-APEK([AEEA-AEEA-γGlu-C18 diacid])PEEDATPEELQKYYVSLRHYYNWLTRQRY-NH2 [Compound 231] : 0.107
4. Isovaleryl-APAK([AEEA-AEEA-γGlu-C18 diacid])PEEDATPEELQRYYVSLRHYYNWLTRQRY-NH2 [Compound 106] : 0.173
